# credit: patent US20120045515A1

test: Saturated solubility of PTX in methanol; format: physicochemical; conditions: organic solvent or mixture, saturated solution in methanol
measured-property: solubility (mg/mL)
Answer in mg/mL, number only, no unit symbol.

Qu. Report solubility for CC(=O)O[C@H]1C(=O)[C@@]2(C)[C@H]([C@H](OC(=O)c3ccccc3)[C@]3(O)C[C@H](OC(=O)[C@H](O)[C@@H](NC(=O)c4ccccc4)c4ccccc4)C(C)=C1C3(C)C)[C@]1(OC(C)=O)CO[C@@H]1C[C@@H]2O [free PTX, paclitaxel] please.
Ans. 50
